method-notes: inhibitors of the yeast RAM network, pilot screen, dse1pr::URA3 reporter, 5-FOA selection (AID 869);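 note: 0% = DMSO wells with no growth and 100% = 10 µM 1-NA-PP1 with full growth; RAM network block rescues cells from 5-FOA so hits raise OD615 growth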
assay-context: S. cerevisiae dse1pr::URA3 5-FOA growth, OD615, 2 d; at 10 µM; stronger effect = higher value; strain carries analog-sensitive mutant Cbk1 kinase
experimental-readout: inhibition (%)
Give just the number in %; leave the unit off.

> print(dat)
                     compound  quantity.unit  observed
1  COc1cccc(C(=O)N2CCSC2=S)c1              %         0

Shift focus to the following entry.
What inhibition value was documented for this compound, C/C=C/Cn1c(N(C)Cc2ccccc2)nc2c1c(=O)[nH]c(=O)n2C ?
0.445

###

Readings of RAM network inhibition for the listed molecules
method-notes: RAM signaling pathway blockade in yeast – S. cerevisiae, Pdr1DBD-CYC8 efflux-inhibited sensitized strain, primary screen (AID 1298);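 note: 0% = DMSO untreated cells without growth and 100% = 10 µM 1-NA-PP1 full growth; higher means more yeast growth rescued from 5-FOA killing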
assay-context: S. cerevisiae cbk1-as DSE1-URA3 strain, 5-FOA growth OD615, 2 d; at 50 µM; stronger effect = higher value
Activity calls are given as the source filed them.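 The calls were made as follows: active = RAM network inhibition above 8.4% in each of two replicates, 3 SD over the compound average; inconclusive = above 8.4% inhibition in only one replicate; inactive = 8.4% inhibition or less in each replicate.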

> print(dat)
                                   molecule           observed
1  Cc1ccc2c(c1)C1(C(=O)N2C)N2CC3(C)CN1CC(C)(C2)C3=O (stereo unspecified)   0.11% (inactive)
2  c1ccc(C2NCCn3cccc32)cc1 (stereo unspecified)   2.74% (inactive)
3  COC(=O)C1=C(C)N(c2cc(Cl)cc(Cl)c2)C(=O)C1   2.04% (inactive)
4  CCOC(=O)N1CCC(NC(=O)c2ccc(NC(=O)C3CCCO3)cc2)CC1 (stereo unspecified)  -0.36% (inactive)

Looking for the measured RAM network inhibition of CCN(CC(=O)NCc1ccc(F)cc1)C(=O)C1CCN(C(=O)Nc2ccccc2)CC1 , can you help?
0.37% (inactive)

Data request, read-out RAM network inhibition, for O=C(NCC1(c2ccccc2)CCOCC1)c1ccc(Br)o1
2.97% (inactive)

###

method-notes: growth suppression of beta-catenin knockout HCT116, pilot screen, human colon tumor cells (AID 823);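 note: 0% = wells killed by 20 µM Hyamine and 100% = untreated DMSO cell wells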
assay-context: CellTiter-Glo, 60 h, at 10 µM, stronger effect = lower value
Inconclusive results are not listed.
experimental-readout: viability (%)
Note: unit % is implicit; provide only the numeric part.

Use the examples below as a reference point.
> print(dat)
                                   molecule  experimental.readout  observed
1  Cc1cc(C)cc(NC(=O)CSc2nc3c(c(=O)n2C)SC(C)C3)c1 (stereo not given)             viability      89.3
2  COc1ccc(N2C(=O)C(CC(=O)O)S/C2=C\C(C)=O)cc1 (stereo not given)             viability        98
3               CC(=O)CC(=O)Nc1cccc2c1CCCC2             viability      92.6
4            CCOC(=O)Nc1ccccc1C(=O)N1CCOCC1             viability      97.5
5  O=C(O)c1ccccc1SC1CC(=O)N(C2CCCCC2)C1=O (stereo not given)             viability      90.7
6   Cc1ccccc1-c1nc(CN2CCC(C(=O)O)CC2)c(C)o1             viability       103
7             CCOC(=O)CSc1nc2nc(C)cc(C)n2n1             viability       101
8  Cc1nc2ccccc2c2oc(C(=O)NCc3ccc4c(c3)OCO4)cc12             viability      70.8

For CCOC(=O)c1c(C)c(-c2ccccc2)n(CC(=O)N2CCCC2)c1C , what is its reported viability?
87.6

viability for O=C1C(=O)N(CCO)C(c2ccccc2)/C1=C(\O)c1ccccc1 (stereo not given) ?
99.7

What value of viability has been reported for the following molecule? CCC(C)NC(=O)Cn1cc2c(n1)CCC(C)C2 (stereo not given)
103

State the recorded viability for this entry: COC(=O)C1Sc2[nH]c(=O)sc2C(c2ccc(Cl)cc2)C1C(=O)OC (stereo not given)
91.3

What measured viability goes with Cn1c(Cn2c(=O)sc3ccccc32)nnc1SCC(=O)NC1CCCC1 ?
102

The values you see were collected from PubChem BioAssay.
